Data origin, for the record: PubChem BioAssay (NCI)

- Tested on: EKVX NSCLC
- ASSAY_PROTOCOL: NCI-60 one-dose screen, 48 h
- MEASUREMENT_CONTEXT: 10 µM unless noted
The panel holds about 83,000 compounds, 20% with a hit somewhere; the sample as a whole holds those more often. Active and inactive are the calls of the source. How the source made its calls: active means growth percent below 10; inactive means the rest.
Outcome codes: yes (1) = active, no (0) = inactive

[[record]]
compound = "COc1cccc(-c2nn(-c3ccccc3)cc2-c2ccnc(NCCCNC(=O)c3ccccc3)c2)c1"
classification = "no (0)"

[[record]]
compound = "CN(c1ccccc1)c1ccc2c(c1)OCCC21CC1Nc1cnccc1C(=O)O (centres undefined)"
classification = "no (0)"

[[record]]
compound = "CCN1C(=O)N(CC)C2Nn3c(s/c(=C\\c4ccc(Cl)cc4Cl)c3=O)=NC21 (centres undefined)"
classification = "no (0)"

[[record]]
compound = "Oc1c(CN2CCCC2)cc(COCc2ccc(Br)cc2)c2cccnc12"
classification = "no (0)"

[[record]]
compound = "COc1cc(C(=O)/C=C/c2c(C(F)(F)F)nc3sccn23)cc(OC)c1OC"
classification = "no (0)"

[[record]]
compound = "COC(=O)CCC1=C(C)C2=NC1=CC1=NC(=CC3=NC(=Cc4[nH]c(/c(=C(/C)O)c4C)=C2)C(C(C)=O)=C3C)C(C)=C1CCC(=O)OC"
classification = "no (0)"

[[record]]
compound = "Nc1n[nH]c(-c2cc(Cl)ccc2O)c1-c1ccccc1"
classification = "no (0)"

[[record]]
compound = "Cc1ccc(S(=O)(=O)NCC[C@@H]2C[C@H]2c2cc3ccccc3s2)cc1"
classification = "no (0)"

[[record]]
compound = "COC(=O)[C@]12CC[C@@H](C)[C@H](C)[C@@H]1C1=CC[C@@H]3[C@@]4(C)C(C=O)=C[C@@](C)(COC(C)=O)[C@@H]4[C@H](O)C[C@@]3(C)[C@]1(C)CC2"
classification = "no (0)"

[[record]]
compound = "CCCCCCCCCOc1c(OC)cc(C2CC(=O)Nc3c2c(C)nn3-c2nc3ccccc3[nH]2)cc1OC (centres undefined)"
classification = "yes (1)"

[[record]]
compound = "O=C(NCCCNc1cc(-c2cn(-c3ccccc3)nc2-c2cccc(O)c2)ccn1)c1cccc(O)c1"
classification = "no (0)"

[[record]]
compound = "COc1ccc(-c2c(N)n[nH]c2-c2ccc(Cl)cc2O)cc1OC"
classification = "no (0)"

[[record]]
compound = "Cc1ccc(S(=O)(=O)N/N=C\\c2cc(Cl)ccc2O)cc1"
classification = "no (0)"

[[record]]
compound = "COc1cccc(-c2nn(-c3ccccc3)cc2-c2ccnc(NCCCNC(=O)Nc3ccc(Cl)c(Cl)c3)c2)c1"
classification = "no (0)"


* * *

- System: ACHN renal
- ASSAY_PROTOCOL: NCI-60 one-dose screen, 48 h
- MEASUREMENT_CONTEXT: 10 µM unless noted
This is part of a sample that, as a whole, favours compounds with a hit. Of some 83,000 tested, about 20% had one in any assay. Activity calls are given as the source filed them. Rule for the calls: active = growth percent below 10; inactive = the rest.
Outcome codes: active, inactive

[[record]]
mol = "O=C1/C(=C/c2ccc(F)cc2)C=C(c2ccccc2)N1CCc1ccccc1"
classification = "inactive"

[[record]]
mol = "C[C@@H]1N=C(c2ccc3ccccc3n2)Nc2nc3ccccn3c2C1=O"
classification = "inactive"

[[record]]
mol = "O=C(Cc1ccc(F)c(F)c1)Nc1cc(C2(C(F)(F)F)CC2)nn1Cc1ccccc1"
classification = "active"

[[record]]
mol = "O=C1Nc2ccccc2/C1=C/c1cn(C(=O)c2c(Cl)cccc2Cl)c2ccccc12"
classification = "inactive"

[[record]]
mol = "Cc1cc(=O)oc2c1ccc1oc(C#N)c(C)c12"
classification = "inactive"


* * *

- Test system: SR leukemia
- ASSAY_PROTOCOL: NCI-60 one-dose screen, 48 h (100 = growth as untreated, 0 = no growth, -100 = all killed)
- MEASUREMENT_CONTEXT: 10 µM unless noted
- Protocol: Growth inhibition of the SR human tumor cell line is measured as a screen for anti-cancer activity. Cells are grown in 96 well plates and exposed to the test compound for 48 hours. Compounds are tested at a single concentration, which is 10^-5 M for most compounds. The reported endpoint is percent growth (GI% or GIPRCNT), where numbers from 0 - 100% represent growth inhibition, and numbers from -100% - 0 represent cell death. For example, a value of 40 represents 60% growth inhibition. […]
This is part of a sample that, as a whole, favours compounds with a hit. Of some 83,000 tested, about 20% had one in any assay.
// growth lookup, one value per entry
READOUT_KIND: growth (%)

[[record]]
mol = "Cc1cc[c-]cc1.Fc1c[c-]c(-c2ccccn2)c(F)c1.[Pt+2].c1ccc(P(C[PH+](c2ccccc2)c2ccccc2)c2ccccc2)cc1"
measured_on = "SR leukemia"
recorded_number = 16.8

[[record]]
mol = "Cn1c(-c2c(N)n(Cc3ccc(C(F)(F)F)cc3)c3nc(C#N)c(C#N)nc23)nc2ccccc21"
measured_on = "SR leukemia"
recorded_number = -35.5

[[record]]
mol = "Cc1cc(Cl)ccc1Nc1nc(C(F)(F)F)ccc1C(=O)N/N=C/c1ccc(N(C)C)cc1"
measured_on = "SR leukemia"
recorded_number = 17.4

[[record]]
mol = "CCCCn1c(=O)c2c(nc(NCCc3ccc(O)c(O)c3)n2CCC)n(CCCC)c1=O"
measured_on = "SR leukemia"
recorded_number = 35.9

[[record]]
mol = "O=C(Nc1ccccc1Cl)Oc1ccc(-c2ccccc2)cc1"
measured_on = "SR leukemia"
recorded_number = 133

[[record]]
mol = "CCN1CCN(c2nc(C)cc(NCc3cc(Nc4ccnc5cc(Cl)ccc45)ccc3F)n2)CC1"
measured_on = "SR leukemia"
recorded_number = -18.8

[[record]]
mol = "Cc1cccc(-c2nc(N(C)c3ccc4ncsc4c3)c3ccccc3n2)n1"
measured_on = "SR leukemia"
recorded_number = 17.3

[[record]]
mol = "NC1=NCc2nc3ccccc3c(=O)n2C1"
measured_on = "SR leukemia"
recorded_number = 93.1

[[record]]
mol = "N=C(N)c1ccc(-c2ccc(-c3cncc4ccccc34)s2)s1"
measured_on = "SR leukemia"
recorded_number = -29.3

[[record]]
mol = "N#Cc1c(-c2ccccn2)[nH]c(=S)[nH]c1=O"
measured_on = "SR leukemia"
recorded_number = 95.4

[[record]]
mol = "CCCCCCCCCCCCCCCCCCOc1ccc(CC(=O)OCC[N+]2(C)CCCC2)cc1"
measured_on = "SR leukemia"
recorded_number = 101

[[record]]
mol = "Cc1cc(NCc2cc(Nc3ccnc4cc(Cl)ccc34)ccc2F)nc(N2CCCC2)n1"
measured_on = "SR leukemia"
recorded_number = -23.9

[[record]]
mol = "COc1cc(-c2nc(N3CCN(C)CC3)c3ccccc3n2)cc(OC)c1OC"
measured_on = "SR leukemia"
recorded_number = 48.9

[[record]]
mol = "c1c[nH]c(CNC2CCCCC2)c1"
measured_on = "SR leukemia"
recorded_number = 144

[[record]]
mol = "COc1ccc(-c2nc3c(N)c(CO)c(C)nc3o2)cc1"
measured_on = "SR leukemia"
recorded_number = 100

[[record]]
mol = "Nc1cc2c3c(cccc3c1)C(=O)N(CCN1CCCC1)C2=O"
measured_on = "SR leukemia"
recorded_number = -6.11

[[record]]
mol = "COc1ccc2cc(-c3cc(OC)c(OC)c(OC)c3)c(=O)oc2c1"
measured_on = "SR leukemia"
recorded_number = 26.8

[[record]]
mol = "O=C(O)CN1C(=O)CCC1=O"
measured_on = "SR leukemia"
recorded_number = 112

[[record]]
mol = "Cc1cc(NCc2cc(Nc3ccnc4cc(Cl)ccc34)ccc2F)nc(N2CCSCC2)n1"
measured_on = "SR leukemia"
recorded_number = -11.7

[[record]]
mol = "N[C@@H](CCCCNCC(=O)O)C(=O)O"
measured_on = "SR leukemia"
recorded_number = 99.3

[[record]]
mol = "NC(=O)c1ccc[n+](Cc2ccc(Cl)cc2Cl)c1"
measured_on = "SR leukemia"
recorded_number = 7.84

[[record]]
mol = "NS(=O)(=O)c1cnccc1Oc1cccc2cccnc12"
measured_on = "SR leukemia"
recorded_number = 86


* * *

- System: CCRF-CEM leukemia
- ASSAY_PROTOCOL: NCI-60 one-dose screen, 48 h (100 = growth as untreated, 0 = no growth, -100 = all killed)
- MEASUREMENT_CONTEXT: 10 µM unless noted
About 83,000 compounds went through this panel and 20% of them were active in at least one assay; those are over-represented in the sample as a whole.
Classification field: class 1 = growth at or over 20%; class 0 = growth under 20%.

[[record]]
compound = "CCN1C(=O)N(CC)C2Nn3c(s/c(=C\\c4cccc([N+](=O)[O-])c4)c3=O)=NC21 (stereo not given)"
classification = "class 1"

[[record]]
compound = "O=C(Nc1ccccc1-c1nc2ccccc2c(=O)[nH]1)c1cc2ccccc2[nH]1"
classification = "class 1"

[[record]]
compound = "CCOC(=O)c1c(-c2ccc(Cl)cc2)c(C#N)c(=O)n(-c2ccccc2CC)c1N"
classification = "class 0"

[[record]]
compound = "COc1ccc(C2C(c3nn[nH]n3)=C(N)Oc3c2ccc2ccccc32)cc1 (stereo not given)"
classification = "class 1"

[[record]]
compound = "COc1cccc(-c2nc3sccn3c2-c2ccnc(NCCNS(=O)(=O)c3cccc(F)c3)c2)c1"
classification = "class 0"

